# Target Or Test System: T1, Pellino 1 FHA (PELI1 residues 13-273) (human, UniProt Q96FA3 13-273)
# T1 construct: Cloned into pGEX-6P1; same preparation for ITC and crystallography by the methods; also called PELI1 (13–273); N-terminal PELI1 fragment; source: E. coli BL21 (DE3), purified (Glutathione Sepharose, 3C cleavage, gel filtration); not shown: GST, N-terminal, cleaved
# T1 sequence (looked up): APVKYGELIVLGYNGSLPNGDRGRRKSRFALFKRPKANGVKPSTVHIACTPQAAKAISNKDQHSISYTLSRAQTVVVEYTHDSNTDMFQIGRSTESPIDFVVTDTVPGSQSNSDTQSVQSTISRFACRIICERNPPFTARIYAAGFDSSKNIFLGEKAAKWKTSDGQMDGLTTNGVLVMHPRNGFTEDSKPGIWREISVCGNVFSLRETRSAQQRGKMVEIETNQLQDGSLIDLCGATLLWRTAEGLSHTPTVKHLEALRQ
# Test Method Notes: ITC; peptide in the syringe (typically 160 μM), protein in the cell (16 μM); 25 mM HEPES pH 7.0, 200 mM NaCl, 1 mM TCEP; single-site binding model
# Condition Description: both partners purified
Square brackets hold non-standard residues; d marks the D form. pT = C[C@@H](OP(=O)(O)O)[C@H](N)C(=O)O
Parameter: dH (kJ/mol)
Give just the numeric value; kJ/mol need not be written.

Consider the worked cases shown below.
Ac-AYEVLA[pT]QPFC-NH2 (SMILES CC(=O)N[C@@H](C)C(=O)N[C@@H](Cc1ccc(O)cc1)C(=O)N[C@@H](CCC(=O)O)C(=O)N[C@H](C(=O)N[C@@H](CC(C)C)C(=O)N[C@@H](C)C(=O)N[C@H](C(=O)N[C@@H](CCC(N)=O)C(=O)N1CCC[C@H]1C(=O)N[C@@H](Cc1ccccc1)C(=O)N[C@@H](CS)C(N)=O)[C@@H](C)OP(=O)(O)O)C(C)C, two N-terminal residues that are not the MDC1 residues at this place; human MDC1, stretch around T752; Natural stretch with two added N-terminal residues (AY); source: synthetic peptide) [MDC1-pT752 phosphopeptide for ITC (AYEVLApTQPFC)] = -77.2
Ac-AYEDEP[pT]QAFA-NH2 (SMILES CC(=O)N[C@@H](C)C(=O)N[C@@H](Cc1ccc(O)cc1)C(=O)N[C@@H](CCC(=O)O)C(=O)N[C@@H](CC(=O)O)C(=O)N[C@@H](CCC(=O)O)C(=O)N1CCC[C@H]1C(=O)N[C@H](C(=O)N[C@@H](CCC(N)=O)C(=O)N[C@@H](C)C(=O)N[C@@H](Cc1ccccc1)C(=O)N[C@@H](C)C(N)=O)[C@@H](C)OP(=O)(O)O) [MDC1-pT719 phosphopeptide for ITC (AYEDEPpTQAFA)] = -91.2
Ac-AYEDSE[pT]QPFD-NH2 (SMILES CC(=O)N[C@@H](C)C(=O)N[C@@H](Cc1ccc(O)cc1)C(=O)N[C@@H](CCC(=O)O)C(=O)N[C@@H](CC(=O)O)C(=O)N[C@@H](CO)C(=O)N[C@@H](CCC(=O)O)C(=O)N[C@H](C(=O)N[C@@H](CCC(N)=O)C(=O)N1CCC[C@H]1C(=O)N[C@@H](Cc1ccccc1)C(=O)N[C@@H](CC(=O)O)C(N)=O)[C@@H](C)OP(=O)(O)O, two N-terminal residues that are not the MDC1 residues at this place; human MDC1, stretch around T765; Natural stretch with two added N-terminal residues (AY); The crystallisation methods name only 'the MDC1-pT765 phosphopeptide'; also called MDC1-pT765 (Site 4) phosphopeptide; MDC1 p765 peptide; source: synthetic peptide) [MDC1-pT765 phosphopeptide for ITC and crystallisation (AYEDSEpTQPFD)] = -92.1

Turning now to a further binder:
In one line, give reported dH of the entry Ac-AYSSAS[pT]FLYP-NH2 (SMILES CC(=O)N[C@@H](C)C(=O)N[C@@H](Cc1ccc(O)cc1)C(=O)N[C@@H](CO)C(=O)N[C@@H](CO)C(=O)N[C@@H](C)C(=O)N[C@@H](CO)C(=O)N[C@H](C(=O)N[C@@H](Cc1ccccc1)C(=O)N[C@@H](CC(C)C)C(=O)N[C@@H](Cc1ccc(O)cc1)C(=O)N1CCC[C@H]1C(N)=O)[C@@H](C)OP(=O)(O)O, two N-terminal residues as in the other ITC peptides; IRAK1, stretch around T141 with tyrosine at pT+3; also called IRAK-pT141(+3Y); source: synthetic peptide) [IRAK1-pT141(+3Y) phosphopeptide (AYSSASpTFLYP)] . -72.6
